Reference source: ChEMBL document CHEMBL1201862

- Tested on: KM12
- PROCEDURE_DETAILS: NCI tumour cell line growth inhibition, 48 h
Active and inactive are the calls of the source. Rule as the data show it: active = GI50 up to about 1.1 µM and inactive = higher.
Below: a set of entries, each annotated with reported GI50.
READOUT_LABEL: GI50

>>> print(df.to_string())
                                    compound  readout_label        readout_value
 0  O=C(/C=C/c1c(O)nc2ccccc2c1O)CC(=O)C(=O)Nc1cccc(O)c1           GI50  > 100 µM (inactive)
 1  Nc1nc(Nc2ccccc2)sc1C(=O)c1c[nH]c2ccccc12           GI50   10.2 µM (inactive)
 2  CC1(c2nc3ccccc3[nH]2)CCC(CO)C(C)(C)O1 (stereo unspecified)           GI50  > 100 µM (inactive)
 3                   O=Cc1cccc2ccc3ccccc3c12           GI50   4.02 µM (inactive)
 4  COc1ccc2cc(/C=N\NC(=O)Nc3cccc4ccccc34)ccc2c1           GI50     67 µM (inactive)
 5  Cn1c(=O)c2c(nc(Cc3ccccc3)n2CC(=O)O)n(C)c1=O           GI50  > 100 µM (inactive)
 6  CC1=C(C(=O)Nc2ccccc2)C(c2ccc3c(c2)OCO3)C(C(=O)Nc2ccccc2)=C(C)N1           GI50   28.5 µM (inactive)
 7  C1OCC2S[C@@H]3COCO[C@@H]3C2O1 (stereo partly specified)           GI50  > 100 µM (inactive)
 8  C=C1CC(c2ccc(O)c(OC)c2)Oc2c(OC)cccc21 (stereo unspecified)           GI50   33.7 µM (inactive)
 9  CCOP(=O)(OCC)C1C(CO)OC(n2ccc(=O)[nH]c2=O)C1O (stereo unspecified)           GI50  > 100 µM (inactive)
10          O=C1c2ccc(O)cc2C(=O)c2ccc(O)cc21           GI50   88.7 µM (inactive)
11  C/C=C/C=N/N(C(=O)c1cc([N+](=O)[O-])cc([N+](=O)[O-])c1)C1=NN=C(c2ccccc2)C(c2ccccc2)N1 (stereo unspecified)           GI50   46.2 µM (inactive)
12          CCOC(=O)Cc1csc(Nc2ccc(OCC)cc2)n1           GI50  > 100 µM (inactive)
13  CC(O)C1(CNc2cc(Cl)nc(N)n2)CCCC1 (stereo unspecified)           GI50  > 100 µM (inactive)
14  CC1=C2[C@@H](c3ccccc3)C3C=CC2(C=C3C(F)(F)F)N(C(=O)NC2CCCCC2)C1=O (stereo partly specified)           GI50   72.6 µM (inactive)
15  O=C(Nc1sccc1S(=O)(=O)c1ccc(Cl)cc1)c1ccc(Cl)cc1           GI50  > 100 µM (inactive)
16  c1ccc(C(NCC2CCO2)(c2ccccc2)c2ccccc2)cc1 (stereo unspecified)           GI50     15 µM (inactive)
17  O=C1CC23CC(=O)CC2(C1)c1ccccc1C3=O (stereo unspecified)           GI50  > 100 µM (inactive)
18  NNC(=S)N/N=C(/C(=O)Nc1cc(Cl)ccc1Cl)C1C(=O)Nc2ccccc2[S+]1[O-] (stereo unspecified)           GI50  > 100 µM (inactive)
19      c1ccc2c3c(ccc2c1)CSCc1ccc2ccccc2c1-3           GI50  > 100 µM (inactive)
20          CS(C)(=O)=N/C=C\C(=O)C(Cl)(Cl)Cl           GI50  > 100 µM (inactive)
21  CN(O)C(=O)SCC(NC(=O)CCC(N)C(=O)O)C(=O)NCC(=O)O (stereo unspecified)           GI50   1050 µM (inactive)
22  NC(C(=O)O)C(O)c1c[nH]cn1 (stereo unspecified)           GI50  > 100 µM (inactive)
23  COc1ccc(-c2c3c(n(C4OC(COC(C)=O)C(OC(C)=O)C(OC(C)=O)C4OC(C)=O)c(=S)c2C#N)CCCC3)cc1 (stereo unspecified)           GI50  > 100 µM (inactive)
24  COC[C@H](C)/N=C/N1CCc2ccccc2C1(Cc1ccccc1)Cc1ccccc1           GI50   13.6 µM (inactive)
25  COc1ccc(N2C(=O)c3c4c(c5c([nH]c6ncccc65)c3C2=O)CCC(C(C)(C)C)C4)cc1 (stereo unspecified)           GI50  > 100 µM (inactive)

====

Below: a set of entries, each annotated with reported GI50.
- System: RXF 393
- PROCEDURE_DETAILS: NCI tumour cell line growth inhibition, 48 h
Active and inactive are the calls of the source. No stated cut-off is given here; in the data, active = GI50 up to about 1.1 µM and inactive = higher.
READOUT_LABEL: GI50

>>> print(df.to_string())
                                    molecule  readout_label        readout_value
 0  Cc1nc2c(o1)C(=O)c1ccccc1/C2=N/c1ccc(N2CCOCC2)cc1           GI50    0.421 µM (active)
 1  C=C(CN(C)C)C1(c2ccccc2)CC2(CCCC2)C(=O)O1 (stereo unspecified)           GI50  > 100 µM (inactive)
 2  C[N+](C)(C)CC(=O)N/N=C\c1c(O)ccc2ccccc12           GI50   20.9 µM (inactive)
 3  Cc1ccc(NCC2CC/C(=C\c3ccc(Cl)cc3)C2=O)cc1 (stereo unspecified)           GI50     17 µM (inactive)
 4  Cc1ccc(S(=O)(=O)NCCSCCNS(=O)(=O)c2ccc(C)cc2)cc1           GI50  > 100 µM (inactive)
 5  O=C(NCCS(=O)(=O)N1C(=O)C2CCCN2C(=O)[C@@H]1Cc1ccccc1)OCc1ccccc1 (stereo partly specified)           GI50     38 µM (inactive)
 6  COc1ccc2[nH]cc(C=C3C(=O)NC(=S)NC3=O)c2c1           GI50   30.3 µM (inactive)
 7  CC1(c2nc3ccccc3[nH]2)CCC(CO)C(C)(C)O1 (stereo unspecified)           GI50  > 100 µM (inactive)
 8  CC1(C)OC2C(O)C(CO)OC2(C(F)F)O1 (stereo unspecified)           GI50  > 100 µM (inactive)
 9  NC(C(=O)O)C(O)c1c[nH]cn1 (stereo unspecified)           GI50  > 100 µM (inactive)
10  CC(C)(C)C1(O)Cc2ccccc2C(=O)O1 (stereo unspecified)           GI50  > 100 µM (inactive)
11  O=C(O)CCC1CCc2cccc3occ1c23 (stereo unspecified)           GI50  > 100 µM (inactive)
12  CCNC1=C(NC(=O)c2ccc(OC)cc2)C(=O)c2ccccc2C1=O           GI50   28.5 µM (inactive)
13  O=C(O)CN1C(=O)OC(c2ccccc2)C1=O (stereo unspecified)           GI50  > 100 µM (inactive)
14  O=C(C#Cc1cn(C2CC(O)C(CO)O2)c(=O)[nH]c1=O)c1ccccc1 (stereo unspecified)           GI50   17.5 µM (inactive)
15  O=C1CC2C(=O)N(Cc3ccccc3)C1C=C2S(=O)(=O)c1ccccc1 (stereo unspecified)           GI50  > 100 µM (inactive)

====

- System: SNB-75
- PROCEDURE_DETAILS: NCI tumour cell line growth inhibition, 48 h
Activity calls are given as the source filed them. Rule as the data show it: active = GI50 up to about 1.1 µM and inactive = higher.
Outcome codes: active, inactive

In [3]: df
Out[3]:
                                   compound  label_class
0  O=S(=O)(c1ccccc1)N1CN2CN(C1)CN(S(=O)(=O)c1ccccc1)C2     inactive
1  O=C(Cc1ccccc1)NN1C(=O)/C(=C\c2ccc(O)cc2)S/C1=N\c1ccccc1     inactive
2  COC(=O)c1ccc2c(c1)C(NC(C)=O)CCc1cc(OC)c(OC)c(OC)c1-2 (stereo unspecified)       active
3  CC(=O)OCC(C)C1=C(O)C(=O)C2(C)C/C=C(/C)CC/C=C(\C)CCC(O)C(C)CCC12 (stereo unspecified)     inactive
4  O=CC1C(Cl)=Nc2nc3ccccc3n2C1c1ccc([N+](=O)[O-])cc1 (stereo unspecified)     inactive
5               CCOC(=N)CC(=O)Nc1ccc(Cl)cc1     inactive

====

- System: TK-10
- PROCEDURE_DETAILS: NCI tumour cell line growth inhibition, 48 h
Activity calls are given as the source filed them. Rule as the data show it: active = GI50 up to about 1.1 µM and inactive = higher.
Outcome codes: active, inactive

COMPOUND	ASSAYED_TARGET	LABEL_CLASS
COc1cc(/C=N/c2nc3cc4sc(/N=C/c5cc(OC)c(OC)c(OC)c5)nc4cc3s2)cc(OC)c1OC	TK-10	inactive
C=CCOCC1C2CCC3(OCCO3)C21 (stereo not given)	TK-10	inactive
Cc1cc2c(c(N)c1C)C(=O)c1ccccc1C2=O	TK-10	inactive
CC(=O)OC1CC2c3cccc4c3C(CC2N(C)C1=O)CN4C(=O)c1ccccc1 (stereo not given)	TK-10	inactive
COc1cccc(C2SCC(=O)N2c2ccc(-n3c(-c4ccccc4)nc4ccccc4c3=O)cc2)c1OC (stereo not given)	TK-10	inactive
CC(C)=CCC[C@]1(C)C=Cc2c(O)c3c(c(CC=C(C)C)c2O1)O[C@]12C(=C[C@@H]4CC1C(C)(C)O[C@@]2(C/C=C(/C)C(=O)O)C4=O)C3=O	TK-10	active
CCC(C)C(NC(=O)C(CCCCN)NC(=O)C(NC(=O)C(CCC(N)=O)NC(=O)C(CCCNC(=N)N)NC(C)=O)C(C)CC)C(=O)NC(Cc1c[nH]c2ccccc12)C(=O)NC(Cc1ccccc1)C(=O)NC(CCC(N)=O)C(=O)NC(CC(N)=O)C(=O)NC(CCCNC(=N)N)C(=O)NC(CCCNC(=N)N)C(=O)NC(CCSC)C(=O)NC(CCCCN)C(=O)NC(Cc1c[nH]c2ccccc12)C(=O)NC(CCCCN)C(=O)NC(CCCCN)C(N)=O (stereo not given)	TK-10	inactive
C=C1C(=O)O[C@@H]2C[C@@H]3[C@]4(CC[C@]5(C)[C@@H]([C@H](C)CC/C=C(\C)C=O)CC[C@@]35C)C[C@]4(CCC(=O)OC)[C@H]12	TK-10	inactive
CC1(c2nc3ccccc3[nH]2)CCC(CO)C(C)(C)O1 (stereo not given)	TK-10	inactive
COC(=O)c1ccc(/C=C(\c2ccc([N+](=O)[O-])o2)S(=O)(=O)c2ccc(NC(C)=O)cc2)o1	TK-10	inactive
C/C=C/C=N/N(c1nnc(-c2ccccc2)c(-c2ccccc2)n1)S(=O)(=O)c1ccc(C)cc1	TK-10	inactive
CCOC(=O)/C=C(/C(=O)OCC)n1ccc(=O)[nH]c1=O	TK-10	inactive
OC1C2[C@@H](O)CCCN2C[C@@H](O)[C@H]1O (stereo not given in full)	TK-10	inactive
CN(C)CCN(C)c1ccc2c(=O)n(CCN(C)C)c(=O)n3c4ccccc4c(=O)c1c23	TK-10	inactive
COc1cc(C2c3cc4c(cc3OC(NCCc3ccccc3)C2C)OCO4)cc(OC)c1OC (stereo not given)	TK-10	inactive
